Below is a list of entries, each paired with its recorded growth inhibition value.
test: NCI Yeast Anticancer Drug Screen. Data for the cln2 rad14 strain (AID 165);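 further: 0% = growth equal to vehicle treated cultures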; settings: S. cerevisiae cln2 rad14 strain, at 50.0 µM, stronger effect = higher value
The panel holds about 79,000 compounds, 15% with a hit somewhere; the sample as a whole holds those more often.
API: value field is a number in %; no unit string.

# compound, test result
data = [
    ("COc1ccc(C2=Nc3ccccc3NC(=O)C2)cc1", 11.4),
]

For reference, reported growth inhibition for COC(=O)C1CCC(C)(C(N)=O)C1(C)C (configuration not stated) stands at -37.8

For reference, reported growth inhibition for Cc1ccc(NC(=O)OCC(F)(F)F)cc1NC(=O)OCC(F)(F)F stands at -0.9

For reference, reported growth inhibition for C[Si](C)(C)c1ccc2c(c1O)C(=O)c1ccccc1C2=O stands at 53.6

For reference, reported growth inhibition for CCOC(=O)CC(=O)Nc1cccc2sc3ncccc3c(=O)c12 stands at 15.4

For reference, reported growth inhibition for COc1ccc(NC(=O)CC(=O)N2N=C(N(c3ccccc3)c3ccccc3)CC2c2ccccc2)cc1 (configuration not stated) stands at 26.3

For reference, reported growth inhibition for Cc1cc2c(cc1C)NC(=O)C(NC(=O)c1ccc(Cl)cc1)C=N2 (configuration not stated) stands at -27.4

For reference, reported growth inhibition for Cc1ccc(C(c2ccc(C)c(C)c2)C(O)C(O)C(O)CO)cc1C (configuration not stated) stands at 12.9

For reference, reported growth inhibition for CC(C)(CC(=O)Nc1ccccc1)C(=O)O stands at -12.1

For reference, reported growth inhibition for CN(C)CCNC(=O)c1cccc2nc3c(C(=O)NCCN(C)C)cccc3nc12 stands at -33.7

For reference, reported growth inhibition for Cc1ccc(NC(=O)C(C)C)cc1 stands at -24.2

For reference, reported growth inhibition for O=C(NC(=O)c1c(F)cccc1F)Nc1ccc(OCc2ccccc2)cc1 stands at 9

###

Assay: NCI Yeast Anticancer Drug Screen. Data for the mec2-1 strain (AID 157)
Conditions: S. cerevisiae mec2-1 strain, at 50.0 µM, stronger effect = higher value
Protocol: Growth inhibition of yeast strains with defined genetic alterations is measured as a screen for potential anti-cancer activity. Selected strains with alterations in DNA damage repair or cell cycle control were exposed to compounds and growth inhibition was measured relative to vehicle treated controls. The strain used in this assay is mec2-1
The panel holds about 79,000 compounds, 15% with a hit somewhere; the sample as a whole holds those more often.
recorded endpoint: growth inhibition (%)
API: value field is a number in %; no unit string.

# compound, unit abbreviation, growth inhibition
data = [
    ("O=C(c1ccc(Cl)s1)C(Cl)C(Cl)c1ccc(Cl)s1 (stereo not given)", "%", -2.4),
]

For reference, reported growth inhibition for COc1cc(C2[C@H]3C(=O)N(c4ccc(Cc5ccc(N6C(=O)[C@@H]7ON(c8ccccc8)C(c8cc(OC)c(OC)c(OC)c8)[C@@H]7C6=O)cc5)cc4)C(=O)[C@H]3ON2c2ccccc2)cc(OC)c1OC (stereo not given in full) stands at 5.2

For reference, reported growth inhibition for c1ccc(-c2nc3ccccc3nc2-c2ccc(-c3nc4ccccc4nc3-c3ccccc3)cc2)cc1 stands at -0.6

For reference, reported growth inhibition for CC(=O)Nc1cc([N+](=O)[O-])ccc1CC(O)c1ccccc1 (stereo not given) stands at -17.1

For reference, reported growth inhibition for Nc1nc(N)c2c(n1)NCN(OCOc1ccc(Cl)cc1)C2 stands at -6
